- METHOD: luciferase reporter signal suppression in cells – H4 neuroglioma cells, luminescence, dose response (AID 1990)
- Assay type: functional, cell-based
Activity calls are given as the source filed them.
PARAMETER_MEASURED: EC50

# annotated cases, reported EC50 shown
MOLECULE: Cc1c([N+](=O)[O-])c(N)nn1C
EC50: > 120 µM (not active)
--
MOLECULE: CCOC(=O)c1cnc2c(OC)cccc2c1N1CC(C)CC(C)C1 (centres undefined)
EC50: 13.9 µM (active)
--
MOLECULE: CC(=O)Nc1ccc(S(=O)(=O)NC2=C(N3CCN(C)CC3)C(=O)c3ccccc3C2=O)cc1
EC50: 15.6 µM (active)

Now consider the entry below.
Per the records, this molecule ( CC(=O)c1ccc(NC(=O)c2cnn3ccccc23)cc1 ) has EC50 equal to 2.12 µM (active)

###

- TARGET_ENTITY: Fatty acid synthase (Homo sapiens, UniProt P49327)
- Sequence (P49327 whole entry): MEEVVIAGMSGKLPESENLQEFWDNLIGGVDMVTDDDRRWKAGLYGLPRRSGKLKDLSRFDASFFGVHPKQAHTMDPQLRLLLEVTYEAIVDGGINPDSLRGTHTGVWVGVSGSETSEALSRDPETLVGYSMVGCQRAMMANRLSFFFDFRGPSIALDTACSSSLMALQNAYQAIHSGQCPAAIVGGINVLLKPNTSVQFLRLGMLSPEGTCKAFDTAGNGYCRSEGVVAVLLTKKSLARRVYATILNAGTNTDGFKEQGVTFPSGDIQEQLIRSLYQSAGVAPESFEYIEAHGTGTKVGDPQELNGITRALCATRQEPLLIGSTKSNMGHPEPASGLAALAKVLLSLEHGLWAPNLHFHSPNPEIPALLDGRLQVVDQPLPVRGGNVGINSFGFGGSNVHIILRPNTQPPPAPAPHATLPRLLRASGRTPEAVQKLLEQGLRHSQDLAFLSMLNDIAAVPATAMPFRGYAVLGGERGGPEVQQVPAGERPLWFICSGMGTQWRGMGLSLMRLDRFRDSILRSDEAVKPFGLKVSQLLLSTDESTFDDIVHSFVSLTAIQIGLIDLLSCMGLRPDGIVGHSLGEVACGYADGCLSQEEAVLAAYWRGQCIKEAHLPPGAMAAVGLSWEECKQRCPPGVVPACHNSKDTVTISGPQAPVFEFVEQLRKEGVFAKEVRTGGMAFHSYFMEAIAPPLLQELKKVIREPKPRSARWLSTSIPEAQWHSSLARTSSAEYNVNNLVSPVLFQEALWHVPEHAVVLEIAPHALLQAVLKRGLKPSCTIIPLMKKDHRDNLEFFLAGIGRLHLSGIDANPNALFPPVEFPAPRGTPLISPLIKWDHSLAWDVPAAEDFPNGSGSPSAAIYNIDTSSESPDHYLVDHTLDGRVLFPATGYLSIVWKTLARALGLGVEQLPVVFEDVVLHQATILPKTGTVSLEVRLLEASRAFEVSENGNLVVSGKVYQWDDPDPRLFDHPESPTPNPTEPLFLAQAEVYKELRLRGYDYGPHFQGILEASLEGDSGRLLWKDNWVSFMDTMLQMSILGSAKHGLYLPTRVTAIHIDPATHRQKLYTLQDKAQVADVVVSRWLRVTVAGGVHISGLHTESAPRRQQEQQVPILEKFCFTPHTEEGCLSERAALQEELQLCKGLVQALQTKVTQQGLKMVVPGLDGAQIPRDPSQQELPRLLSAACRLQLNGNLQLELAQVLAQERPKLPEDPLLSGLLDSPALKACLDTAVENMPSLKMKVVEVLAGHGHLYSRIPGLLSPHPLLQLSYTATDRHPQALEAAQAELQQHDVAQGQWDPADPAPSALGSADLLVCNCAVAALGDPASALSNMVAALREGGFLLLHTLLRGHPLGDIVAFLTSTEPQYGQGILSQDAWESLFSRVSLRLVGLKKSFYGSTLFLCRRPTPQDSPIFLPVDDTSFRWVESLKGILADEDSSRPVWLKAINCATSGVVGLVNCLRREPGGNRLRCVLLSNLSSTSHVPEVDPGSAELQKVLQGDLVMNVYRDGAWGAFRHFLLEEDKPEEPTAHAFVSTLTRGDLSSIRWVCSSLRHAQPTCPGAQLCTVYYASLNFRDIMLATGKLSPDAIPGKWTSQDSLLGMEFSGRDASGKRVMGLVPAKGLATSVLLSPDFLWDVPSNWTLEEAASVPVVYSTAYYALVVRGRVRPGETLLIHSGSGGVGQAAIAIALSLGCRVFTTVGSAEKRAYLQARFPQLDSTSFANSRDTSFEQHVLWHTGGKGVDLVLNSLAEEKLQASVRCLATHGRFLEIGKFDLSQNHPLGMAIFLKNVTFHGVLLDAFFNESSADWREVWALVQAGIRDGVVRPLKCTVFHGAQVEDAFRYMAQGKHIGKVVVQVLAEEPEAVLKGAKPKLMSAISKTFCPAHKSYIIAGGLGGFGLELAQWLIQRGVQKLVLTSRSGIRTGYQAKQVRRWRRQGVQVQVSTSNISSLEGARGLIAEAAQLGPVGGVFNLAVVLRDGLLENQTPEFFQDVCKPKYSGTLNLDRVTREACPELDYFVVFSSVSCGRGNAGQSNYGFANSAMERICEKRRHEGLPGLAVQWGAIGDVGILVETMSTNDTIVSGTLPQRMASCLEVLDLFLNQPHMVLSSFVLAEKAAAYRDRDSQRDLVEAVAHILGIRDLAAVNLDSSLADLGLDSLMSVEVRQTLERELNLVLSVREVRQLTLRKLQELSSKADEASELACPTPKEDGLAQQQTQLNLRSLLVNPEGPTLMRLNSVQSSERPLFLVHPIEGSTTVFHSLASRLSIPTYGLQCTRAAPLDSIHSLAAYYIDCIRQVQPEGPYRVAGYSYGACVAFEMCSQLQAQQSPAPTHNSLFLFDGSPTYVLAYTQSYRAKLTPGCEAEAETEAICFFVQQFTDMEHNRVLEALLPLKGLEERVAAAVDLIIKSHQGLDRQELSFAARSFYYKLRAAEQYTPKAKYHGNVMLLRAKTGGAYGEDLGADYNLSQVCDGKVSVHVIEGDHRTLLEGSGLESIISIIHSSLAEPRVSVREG
- METHOD: inhibition of human FAS-TE enzyme activity – biochemical, kinetic fluorescence intensity, dose response (AID 624326);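 note: rate of fluorescence rise from hydrolysis of a fluorogenic O-methyl fluorescein ester substrate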
- Format: functional
Activity calls are given as the source filed them.
Choose one outcome from this list and give only that: t = active, f = inactive

Previously resolved entries follow.
COMPOUND: O=C(c1ccc(Cl)c([N+](=O)[O-])c1)N1CCN(c2ccccc2)CC1
TARGET_ENTITY: Fatty acid synthase (Homo sapiens, UniProt P49327)
CLASS_NAME: t
--
COMPOUND: COc1ccccc1N1CC(C(=O)Nc2cc(C(F)(F)F)ccc2N2CCCC2)CC1=O (stereo unspecified)
TARGET_ENTITY: Fatty acid synthase (Homo sapiens, UniProt P49327)
CLASS_NAME: t
--
COMPOUND: O=C(Cn1c(=O)c2sccc2n(Cc2cccc([N+](=O)[O-])c2)c1=O)NCCc1ccccc1
TARGET_ENTITY: Fatty acid synthase (Homo sapiens, UniProt P49327)
CLASS_NAME: f
--
COMPOUND: O=C(CCNC(=O)c1ccc([N+](=O)[O-])cc1)NCc1ccccc1
TARGET_ENTITY: Fatty acid synthase (Homo sapiens, UniProt P49327)
CLASS_NAME: t
--
COMPOUND: CCC(C)(C)C1CCc2n[nH]c(C(=O)NCCCNC(=O)OC(C)(C)C)c2C1 (stereo unspecified)
TARGET_ENTITY: Fatty acid synthase (Homo sapiens, UniProt P49327)
CLASS_NAME: f

Task: Dear colleague, could you share the recorded outcome for Cc1nn2c(O)cc(-c3ccc([N+](=O)[O-])cc3)nc2c1-c1ccccc1 when you have a moment?
Result: t

Task: Dear colleague, could you share the recorded outcome for CCCCN=C(S)Nc1cc([N+](=O)[O-])ccc1C when you have a moment?
Result: t

Task: Dear colleague, could you share the recorded outcome for Cc1ccc2nc(N=C(N)NS(=O)(=O)c3ccc([N+](=O)[O-])cc3)nc(C)c2c1 when you have a moment?
Result: t

Task: Dear colleague, could you share the recorded outcome for CN(C)S(=O)(=O)c1ccc2c(c1)C(=O)c1cc(S(=O)(=O)N(C)C)ccc1CC2 when you have a moment?
Result: t

Task: Dear colleague, could you share the recorded outcome for O=C(NCC1CCCCC1)c1cc([N+](=O)[O-])ccc1Cl when you have a moment?
Result: t

Task: Dear colleague, could you share the recorded outcome for O=[N+]([O-])c1ccc2ncnc(N3CCN(Cc4ccc5c(c4)OCO5)CC3)c2c1 when you have a moment?
Result: t

###

For each entry below, report its AC50 value.
- TARGET_ENTITY: Paired box protein Pax-8 (Homo sapiens, UniProt Q06710)
- Sequence (Q06710 whole entry): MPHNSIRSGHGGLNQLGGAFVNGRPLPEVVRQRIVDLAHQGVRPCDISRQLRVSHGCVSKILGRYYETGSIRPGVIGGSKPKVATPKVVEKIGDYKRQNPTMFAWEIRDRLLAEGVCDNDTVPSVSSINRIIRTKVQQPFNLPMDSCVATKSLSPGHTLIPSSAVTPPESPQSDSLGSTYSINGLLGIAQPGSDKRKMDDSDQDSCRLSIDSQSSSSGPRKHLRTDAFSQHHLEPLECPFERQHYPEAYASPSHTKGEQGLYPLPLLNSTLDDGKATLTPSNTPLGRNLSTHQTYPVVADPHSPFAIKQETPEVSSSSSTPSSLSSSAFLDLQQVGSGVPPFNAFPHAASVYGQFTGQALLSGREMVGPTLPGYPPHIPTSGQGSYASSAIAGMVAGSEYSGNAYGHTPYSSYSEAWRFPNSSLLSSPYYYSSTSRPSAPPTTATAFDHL
- METHOD: PAX8 transcriptional activity inhibition in RMG-I – RMG-I cells, luciferase, cherry-pick, dose response (AID 687027);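 note: luciferase reporter driven by Pax8 target thyroperoxidase promoter measured by SteadyGlo luminescence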
- Type: functional, cell-based
Activity calls are given as the source filed them.

MOLECULE: Cc1ccccc1-c1ccc([C@@H]2[C@H](CO)N3CCCCN(C(=O)Nc4cccc(F)c4)C[C@@H]23)cc1
AC50: 19.6 µM (active)

MOLECULE: Cc1cccc(S(=O)(=O)N2CCCCN3[C@H](CO)[C@H](c4ccc(C#C[C@H](C)O)cc4)[C@H]3C2)c1
AC50: 7.18 µM (active)

MOLECULE: COc1ccccc1-c1ccc2c(c1)[C@H]1[C@H](CCN1C(=O)C1CCCCC1)[C@@H](CO)N2
AC50: 9.8 µM (active)

MOLECULE: O=C(Cn1ncc(Cl)c(Cl)c1=O)Nc1ccc2c(c1)OCO2
AC50: 4.07 µM (active)

MOLECULE: Cc1ccc(S(=O)(=O)N(C)C[C@H]2Oc3c(NC(=O)Nc4cccc5ccccc45)cccc3C(=O)N([C@@H](C)CO)C[C@@H]2C)cc1
AC50: 5.94 µM (active)

Per the records, this molecule ( COc1ccc(Cn2cc3c(-c4ccc(F)cc4)nnc-3c3cc(OC)c(OC)cc32)cc1 ) has AC50 equal to 12.9 µM (active)

###

Form: system (UniProtKB P05177), quantity (AC50), values below.
Sequence (P05177 whole entry): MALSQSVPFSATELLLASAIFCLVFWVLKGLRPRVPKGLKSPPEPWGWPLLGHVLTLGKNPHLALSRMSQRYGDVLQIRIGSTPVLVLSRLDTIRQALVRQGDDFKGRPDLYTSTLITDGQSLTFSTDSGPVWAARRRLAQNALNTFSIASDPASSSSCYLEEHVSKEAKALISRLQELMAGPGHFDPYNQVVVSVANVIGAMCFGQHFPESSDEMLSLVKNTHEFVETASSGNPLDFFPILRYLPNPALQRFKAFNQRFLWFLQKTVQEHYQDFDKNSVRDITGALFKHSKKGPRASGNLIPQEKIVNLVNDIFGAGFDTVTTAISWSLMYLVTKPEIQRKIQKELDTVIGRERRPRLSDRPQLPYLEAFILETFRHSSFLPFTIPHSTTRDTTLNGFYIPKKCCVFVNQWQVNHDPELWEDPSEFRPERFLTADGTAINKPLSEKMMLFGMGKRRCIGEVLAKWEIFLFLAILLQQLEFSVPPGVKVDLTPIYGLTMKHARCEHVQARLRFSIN

# annotated cases, reported AC50 shown
MOLECULE: CCOc1ccc(-c2nnc3ccc(SCC(=O)NCc4ccco4)nn23)cc1
AC50: 15.8 µM (inconclusive)
--
MOLECULE: O=C(Nc1ccccc1)N1CC2(CCN(C(=O)Oc3ccccc3)CC2)C1
AC50: 20 µM (inconclusive)
--
MOLECULE: COc1ccc(OC)c2nc(O)c(CCNS(=O)(=O)c3ccc(C)cc3)cc12
AC50: 12.6 µM (inconclusive)
--
MOLECULE: CCOC(=O)N1CCN(S(=O)(=O)c2ccc(C(=O)Nc3ccc(F)cc3F)cc2)CC1
AC50: 6.31 µM (inconclusive)
--
MOLECULE: O=C(Oc1ccccc1)N1CCC2(CC1)CN(c1ncccn1)C2
AC50: 25.1 µM (inconclusive)

For every item in the list below, what is its measured AC50?
1. CCCCOC(=O)CSCC(=O)Nc1cc(C)on1
2. Cc1ccc(-n2[nH]c(C)c(/C=N/c3ccc4[nH]c(O)nc4c3)c2=O)cc1C
3. Cn1c(OCc2ccc3c(c2)OCO3)nc2c1c(=O)n(Cc1ccc(Cl)c(Cl)c1)c(=O)n2C
4. COc1ccc(C(=O)Nc2cccc3c2C(=O)NC3=O)cc1S(=O)(=O)N1CCOCC1
5. CCOC(=O)c1sc2c(c1C)c(=O)c(C(=O)OCC)cn2CC

Result:
["25.1 µM (inconclusive)", "12.6 µM (inconclusive)", "14.1 µM (inconclusive)", "1 µM (inconclusive)", "25.1 µM (inconclusive)"]

###

- TARGET_ENTITY: Sentrin-specific protease 1 (Homo sapiens, UniProt Q9P0U3)
- Sequence (Q9P0U3 whole entry): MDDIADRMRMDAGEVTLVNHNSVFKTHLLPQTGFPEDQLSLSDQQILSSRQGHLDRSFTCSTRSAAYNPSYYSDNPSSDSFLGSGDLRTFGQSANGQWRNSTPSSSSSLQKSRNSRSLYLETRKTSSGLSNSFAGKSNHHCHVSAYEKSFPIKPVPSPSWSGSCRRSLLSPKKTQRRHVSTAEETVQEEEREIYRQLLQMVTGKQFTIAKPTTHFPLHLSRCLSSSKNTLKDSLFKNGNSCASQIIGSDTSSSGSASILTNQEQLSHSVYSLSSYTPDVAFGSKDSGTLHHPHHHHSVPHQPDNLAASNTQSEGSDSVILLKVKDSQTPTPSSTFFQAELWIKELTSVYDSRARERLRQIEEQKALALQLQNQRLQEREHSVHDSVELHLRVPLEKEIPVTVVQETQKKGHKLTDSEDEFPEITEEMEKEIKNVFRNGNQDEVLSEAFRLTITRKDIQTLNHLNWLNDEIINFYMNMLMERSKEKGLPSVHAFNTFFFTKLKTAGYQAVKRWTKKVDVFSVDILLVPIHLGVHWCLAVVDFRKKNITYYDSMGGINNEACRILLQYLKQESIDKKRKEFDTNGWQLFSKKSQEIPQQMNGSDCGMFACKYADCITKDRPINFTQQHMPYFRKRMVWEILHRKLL
- METHOD: Dose response confirmation of small molecule inhibitors of the catalytic domain of the SUMO protease, SENP1 in a FRET assay.
- Assay type: functional
- CONDITION_SET: read-out: IC50_Mean
The source made the active and inactive calls.
Choose one outcome from this list and give only that: T for active, F for inactive

COMPOUND: C=CCOCCN1C(=O)C2C(c3ccccc3)C=CC(c3ccccc3)C2C1=O (centres undefined)
TARGET_ENTITY: Sentrin-specific protease 1 (Homo sapiens, UniProt Q9P0U3)
CLASS_NAME: T

Task: Dear colleague, could you share the recorded outcome for CCOC(=O)c1c(O)nc2ccc(Cl)c3c2c1-c1ccccc1C3=O when you have a moment?
Result: T

Task: Dear colleague, could you share the recorded outcome for COCCNC(=O)c1cccc2c1C(=O)c1ccc(N3CCOCC3)cc1S2(=O)=O when you have a moment?
Result: T

Task: Dear colleague, could you share the recorded outcome for Nc1cc([N+](=O)[O-])ccc1Nc1ccccc1 when you have a moment?
Result: F
